# System: FM-MEL-6
# ASSAY_INFO: drug sensitivity score (DSS) (DSS (unitless, 0-50 scale)); higher = more sensitive (stronger viability inhibition); extreme values may be limits of the assay
# MEASUREMENT_CONTEXT: 72 h; culture: 2D
Quick rule for you: drug sensitivity score at 1 or higher means fulfilled, lower means not fulfilled.

Previously resolved entries follow.
NC1(c2ccc(-c3nc4ccn5c(=O)[nH]nc5c4cc3-c3ccccc3)cc2)CCC1; fulfilled
Cc1nc(NC(=O)N2CCC[C@H]2C(N)=O)sc1-c1ccnc(C(C)(C)C(F)(F)F)c1; not fulfilled
Nc1nc(Cl)nc2c1ncn2[C@@H]1O[C@H](CO)[C@@H](O)[C@@H]1F; fulfilled
CCN(c1cc(-c2ccc(CN3CCOCC3)cc2)cc(C(=O)NCc2c(C)cc(C)[nH]c2=O)c1C)C1CCOCC1; fulfilled
CC1(C)NC(=O)N(c2ccc([N+](=O)[O-])c(C(F)(F)F)c2)C1=O [Nilutamide]; not fulfilled

Test whether the compound C[C@H]1C[C@@H](n2c(Nc3ccc(OC(F)(F)F)cc3)nc3cc(CCC(=O)O)ccc32)CC(C)(C)C1 records drug sensitivity score of 1 or higher.
not fulfilled

Hi, just wondering whether C[C@H](Nc1ncnc2[nH]cnc12)c1cc2ccc(F)cc2nc1-c1ccccn1 shows drug sensitivity score of 1 or higher.
not fulfilled

Dear colleague, could you confirm whether CNC(=O)[C@@H](NC(=O)[C@H](CC(C)C)[C@H](O)C(=O)NO)C(C)(C)C has drug sensitivity score at or above 1?
not fulfilled
